Each entry below carries its reported Kd.
# TARGET_SYSTEM: T1, human IL1RAP extracellular domain protein (GK002, HuIL1Racp-ECD-His6) (human, UniProt Q9NPH3 21-367)
# T1 construct: also called His-tagged human IL-1RAP extracellular domain protein; HuIL1RAP-ECD-His6 (GK002)
# T1 sequence: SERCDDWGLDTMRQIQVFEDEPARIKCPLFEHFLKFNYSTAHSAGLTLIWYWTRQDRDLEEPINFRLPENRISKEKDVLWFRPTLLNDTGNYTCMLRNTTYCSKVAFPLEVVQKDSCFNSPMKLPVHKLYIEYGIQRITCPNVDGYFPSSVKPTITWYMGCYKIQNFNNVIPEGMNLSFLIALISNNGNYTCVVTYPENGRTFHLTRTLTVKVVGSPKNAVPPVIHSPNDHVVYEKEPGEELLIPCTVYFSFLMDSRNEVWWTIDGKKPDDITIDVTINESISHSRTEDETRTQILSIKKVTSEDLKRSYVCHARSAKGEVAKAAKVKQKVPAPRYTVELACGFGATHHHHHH
# ASSAY_REMARKS: SPR (Biacore T200), mAb captured by anti-Fc IgG, His-tagged human IL1RAP ECD as analyte
READOUT_NAME: Kd

[[record]]
binder = "murine mAb001 (antibody, V domains shown, Murine anti-human IL1RAP mAb) VH: QVQLQQPGAELVRPGSSVKLSCKASGYTFTSYWMDWVKQRPGQGLEWIGNIYPSDSKTHYNQKFKDKATLTVDKSSSTAYMQLSSLTSEDSAVYYCARDYYGSIGMDYWGQGTSVTVSS VL: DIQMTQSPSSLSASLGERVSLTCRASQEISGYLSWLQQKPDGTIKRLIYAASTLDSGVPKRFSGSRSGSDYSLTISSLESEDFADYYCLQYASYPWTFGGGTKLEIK"
readout_name = "Kd"
result_value = "4.97 nM"

[[record]]
binder = "murine mAb117 (antibody, V domains shown, Murine anti-human IL1RAP mAb) VH: QAYLQQSGAELVRPGASVKMSCKASGYTFTSYNMHWVKQSPRQGLEWVGVFYLGNGDTSYNEKFKGKATLTVDKSSSTAYMQLSSLTSEDSAVYFCARPGGYANWYFDVWGTGTTVTVSS VL: DIVMTQSQKFMSTSVGDWVSVTCKASQNVGTEVSWYQQKPGQSPNTLIYSASYRHSGVPDRFTGSGSGTEFTLTITNVQSEDLADYFCQQYNSFPLTFGAGTKLDLK"
readout_name = "Kd"
result_value = "0.193 nM"

[[record]]
binder = "murine mAb048 (antibody, V domains shown, Murine anti-human IL1RAP mAb) VH: QVQLQQPGADLVKPGASVKLSCKAYGYTFFSYWMHWVRQRPGQGLEWIGMIHPNSGTTNNNEKFKSKATLTVDKSFSTAYMQLSSLTSEDSAVYYCARGYSNYDFDYWGQGTILTVSS VL: DIKMTQFPSSMYASLGERVTITCKASQDINTYLIWIQQKPGKSPKTLIYRANRLADGVPSRFSGSGSGQDSSLTISSLEHEDMGIYYCLQYDEFPYTFGGGTKLEIK"
readout_name = "Kd"
result_value = "0.357 nM"

[[record]]
binder = "murine mAb067 (antibody, V domains shown, Murine anti-human IL1RAP mAb) VH: QVKLHQSGAELAKPGASVKMSCKASGYTFNSYWIHWVKQRPGQGLEWIGYNNPTSGYSEYNQKFTDKATLSADKSSSTAYMQLSSLTSEDSAVYYCVREYGDLFAYWGQGTLVTVSA VL: NIVMTQSPKSMSMSVGERVTLSCKASENVGYSVSWFQQKPDQSPKLLIYGASNRYTGVPDRFTGSGSATDFTLTISTVQAEDLADYHCGQIYIYPYTFGGGTKLEIK"
readout_name = "Kd"
result_value = "0.3 nM"


Values compiled from patent US20230295313A1.
